The reported numbers originate from patent US6737383B1.

# Test system: bedstraw
# assay: Test B pre/postemergence bedstraw
# Format: in vivo, Galium aparine
# protocolConditions: Rate 125 g/ha; Postemergence; scale 0 to 10, 0 no effect, 10 complete control
# Bedstraw plant response rating per entry
endpoint: Bedstraw plant response rating

>  <smilesRepr>
CC(C)N(C(=O)n1oc(=O)n(C(C)C)c1=O)c1ccc(Cl)cc1

>  <assayTarget>
bedstraw

>  <endpoint>
Bedstraw plant response rating

>  <val>
6

$$$$
>  <smilesRepr>
CCN(C(=O)n1oc(=O)n(-c2c(C)cccc2C)c1=O)C1CCCCC1

>  <assayTarget>
bedstraw

>  <endpoint>
Bedstraw plant response rating

>  <val>
0

$$$$
>  <smilesRepr>
CCN(CC)C(=O)n1oc(=O)n(Cc2cccs2)c1=O

>  <assayTarget>
bedstraw

>  <endpoint>
Bedstraw plant response rating

>  <val>
0

$$$$
>  <smilesRepr>
Cc1c(Cl)cccc1-n1c(=O)on(C(=O)N(c2ccc(F)cc2)C(C)C)c1=O

>  <assayTarget>
bedstraw

>  <endpoint>
Bedstraw plant response rating

>  <val>
0

$$$$
